Where do these numbers come from? They come from patent US8211935B2.

molecular target: CaV2.2 (Homo sapiens, UniProt Q00975); construct: expressed in transfected cells; host or cells: HEK293; experiment: VIPR optical membrane potential assay with electrical stimulation; format: cell-based; settings: Table 3, biological assay data; read-out: IC50
Sequence (Q00975 whole entry): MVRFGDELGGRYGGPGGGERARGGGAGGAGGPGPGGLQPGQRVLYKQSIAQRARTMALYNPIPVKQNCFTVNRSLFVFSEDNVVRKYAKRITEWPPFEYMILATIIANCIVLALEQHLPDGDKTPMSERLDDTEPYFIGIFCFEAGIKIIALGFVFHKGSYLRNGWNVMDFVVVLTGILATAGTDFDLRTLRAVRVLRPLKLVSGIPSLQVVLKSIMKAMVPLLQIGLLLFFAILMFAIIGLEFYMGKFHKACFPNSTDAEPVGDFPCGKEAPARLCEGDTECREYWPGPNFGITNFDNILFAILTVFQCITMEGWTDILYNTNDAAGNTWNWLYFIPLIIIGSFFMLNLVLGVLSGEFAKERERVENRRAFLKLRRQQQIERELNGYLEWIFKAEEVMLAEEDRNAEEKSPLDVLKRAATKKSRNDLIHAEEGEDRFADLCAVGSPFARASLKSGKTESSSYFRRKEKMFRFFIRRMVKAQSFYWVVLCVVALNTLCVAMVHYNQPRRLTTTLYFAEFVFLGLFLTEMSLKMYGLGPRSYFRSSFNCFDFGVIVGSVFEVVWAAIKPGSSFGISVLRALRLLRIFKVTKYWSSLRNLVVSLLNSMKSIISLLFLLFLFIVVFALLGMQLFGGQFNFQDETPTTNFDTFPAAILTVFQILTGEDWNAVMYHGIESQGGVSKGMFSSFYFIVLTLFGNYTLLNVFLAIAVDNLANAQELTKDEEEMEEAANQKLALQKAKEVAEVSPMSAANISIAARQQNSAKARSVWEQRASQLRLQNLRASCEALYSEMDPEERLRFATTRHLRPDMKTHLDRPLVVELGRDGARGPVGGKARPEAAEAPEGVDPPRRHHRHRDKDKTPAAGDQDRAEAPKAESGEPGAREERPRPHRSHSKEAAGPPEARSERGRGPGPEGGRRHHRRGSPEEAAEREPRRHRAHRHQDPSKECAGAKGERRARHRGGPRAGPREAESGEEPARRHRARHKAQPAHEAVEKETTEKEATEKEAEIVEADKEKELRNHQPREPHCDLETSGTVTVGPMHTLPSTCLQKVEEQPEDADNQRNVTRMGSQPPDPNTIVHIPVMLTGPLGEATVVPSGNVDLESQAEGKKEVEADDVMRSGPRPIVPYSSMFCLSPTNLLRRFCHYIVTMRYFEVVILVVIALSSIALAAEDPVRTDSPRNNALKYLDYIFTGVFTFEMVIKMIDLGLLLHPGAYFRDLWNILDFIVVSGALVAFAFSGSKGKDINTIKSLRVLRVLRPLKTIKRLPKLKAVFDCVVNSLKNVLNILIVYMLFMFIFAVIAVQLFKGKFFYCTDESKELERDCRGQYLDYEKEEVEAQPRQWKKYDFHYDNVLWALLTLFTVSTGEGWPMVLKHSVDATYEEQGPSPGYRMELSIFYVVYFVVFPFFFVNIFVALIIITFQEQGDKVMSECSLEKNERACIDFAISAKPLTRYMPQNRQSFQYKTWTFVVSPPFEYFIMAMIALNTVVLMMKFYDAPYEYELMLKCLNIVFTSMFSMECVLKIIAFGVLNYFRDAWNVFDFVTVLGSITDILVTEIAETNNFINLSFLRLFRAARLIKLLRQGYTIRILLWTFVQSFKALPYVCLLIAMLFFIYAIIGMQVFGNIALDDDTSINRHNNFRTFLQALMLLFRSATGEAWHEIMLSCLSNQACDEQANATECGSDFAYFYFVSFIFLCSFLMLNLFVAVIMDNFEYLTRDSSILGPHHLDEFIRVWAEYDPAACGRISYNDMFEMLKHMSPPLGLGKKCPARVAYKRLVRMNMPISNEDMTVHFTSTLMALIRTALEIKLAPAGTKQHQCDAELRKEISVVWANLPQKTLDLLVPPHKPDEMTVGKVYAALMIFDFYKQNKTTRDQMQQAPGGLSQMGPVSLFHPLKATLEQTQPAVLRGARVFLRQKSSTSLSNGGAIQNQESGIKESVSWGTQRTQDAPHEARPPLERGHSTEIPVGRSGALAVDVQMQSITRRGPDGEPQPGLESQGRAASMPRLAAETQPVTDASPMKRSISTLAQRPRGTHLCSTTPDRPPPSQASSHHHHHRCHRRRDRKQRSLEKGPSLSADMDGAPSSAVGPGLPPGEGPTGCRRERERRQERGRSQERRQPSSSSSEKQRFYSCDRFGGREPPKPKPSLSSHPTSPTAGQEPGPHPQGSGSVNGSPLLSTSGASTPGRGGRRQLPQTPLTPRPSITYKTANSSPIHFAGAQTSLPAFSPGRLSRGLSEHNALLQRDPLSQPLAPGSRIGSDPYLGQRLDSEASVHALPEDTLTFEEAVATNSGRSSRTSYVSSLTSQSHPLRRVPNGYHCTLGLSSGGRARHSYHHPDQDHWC
Sequence (P54284 whole entry partner): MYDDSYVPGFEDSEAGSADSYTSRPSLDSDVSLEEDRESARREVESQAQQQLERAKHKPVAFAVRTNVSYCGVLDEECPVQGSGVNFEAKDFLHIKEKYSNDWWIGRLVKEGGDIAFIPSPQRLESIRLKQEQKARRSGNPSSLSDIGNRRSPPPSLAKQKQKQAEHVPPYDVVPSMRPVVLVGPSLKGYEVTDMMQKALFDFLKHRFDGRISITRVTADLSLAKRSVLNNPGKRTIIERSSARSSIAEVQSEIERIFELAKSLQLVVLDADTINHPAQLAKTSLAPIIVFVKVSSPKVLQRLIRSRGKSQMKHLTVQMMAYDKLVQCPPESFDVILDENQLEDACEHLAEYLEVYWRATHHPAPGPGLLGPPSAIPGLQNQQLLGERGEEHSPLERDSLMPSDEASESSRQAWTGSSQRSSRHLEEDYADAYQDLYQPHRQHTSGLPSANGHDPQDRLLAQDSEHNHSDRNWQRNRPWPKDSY
Sequence (P54289 25-946 partner limits assumed): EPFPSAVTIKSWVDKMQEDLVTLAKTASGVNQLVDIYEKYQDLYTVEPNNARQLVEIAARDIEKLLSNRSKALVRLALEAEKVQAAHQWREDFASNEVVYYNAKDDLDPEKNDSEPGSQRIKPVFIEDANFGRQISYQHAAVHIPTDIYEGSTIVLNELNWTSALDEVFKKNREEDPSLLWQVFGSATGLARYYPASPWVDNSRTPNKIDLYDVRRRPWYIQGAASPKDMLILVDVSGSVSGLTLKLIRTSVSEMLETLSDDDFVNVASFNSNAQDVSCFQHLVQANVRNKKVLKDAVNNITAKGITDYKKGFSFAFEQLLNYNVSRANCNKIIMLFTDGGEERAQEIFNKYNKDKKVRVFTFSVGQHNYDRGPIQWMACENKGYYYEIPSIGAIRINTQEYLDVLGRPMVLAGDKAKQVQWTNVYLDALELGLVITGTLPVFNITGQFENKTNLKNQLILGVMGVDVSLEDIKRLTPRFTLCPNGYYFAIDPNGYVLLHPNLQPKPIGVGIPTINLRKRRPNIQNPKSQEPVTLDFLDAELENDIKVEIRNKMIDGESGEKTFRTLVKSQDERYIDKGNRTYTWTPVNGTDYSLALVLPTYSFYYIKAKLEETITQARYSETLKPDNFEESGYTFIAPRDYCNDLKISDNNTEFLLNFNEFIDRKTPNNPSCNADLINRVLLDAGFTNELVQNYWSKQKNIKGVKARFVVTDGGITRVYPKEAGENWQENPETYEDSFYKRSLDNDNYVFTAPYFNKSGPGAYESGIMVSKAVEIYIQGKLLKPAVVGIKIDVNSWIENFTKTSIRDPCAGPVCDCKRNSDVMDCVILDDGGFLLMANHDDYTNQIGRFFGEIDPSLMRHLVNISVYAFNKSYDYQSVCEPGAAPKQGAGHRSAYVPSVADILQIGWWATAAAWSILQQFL
Sequence (P54289 947-1103 partner limits assumed): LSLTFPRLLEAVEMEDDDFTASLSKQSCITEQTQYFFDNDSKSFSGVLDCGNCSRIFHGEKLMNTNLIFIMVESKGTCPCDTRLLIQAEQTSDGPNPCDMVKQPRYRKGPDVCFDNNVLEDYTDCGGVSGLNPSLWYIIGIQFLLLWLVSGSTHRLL
Recorded IC50 for the following molecules

>>> result("CC1CCN(C(=O)c2cc3cc(S(=O)(=O)N4CCCCCC4)ccc3o2)CC1")
"< 5 µM"

// IC50 lookup, molecule = Cc1c(C(=O)NC(C)C)[nH]c2ccc(S(=O)(=O)N3CC(C)CC(C)C3)cc12 (centres unmarked) , result: 5 to 20 µM

// IC50 lookup, molecule = Cc1c(C(=O)N2CCCCC2)oc2ccc(S(=O)(=O)N3CC(C)CC(C)C3)cc12 (centres unmarked) , result: < 5 µM

// IC50 lookup, molecule = Cc1c(C(=O)N2CCSCC2)oc2ccc(S(=O)(=O)N3CCC(C)CC3)cc12 , result: 5 to 20 µM

// IC50 lookup, molecule = Cc1c(C(=O)N2CC(C)CC(C)C2)oc2ccc(S(=O)(=O)N3CCOCC3)cc12 (centres unmarked) , result: 5 to 20 µM

// IC50 lookup, molecule = Cc1c(C(=O)NC2CCCC2)oc2ccc(S(=O)(=O)N3CCOCC3)cc12 , result: < 20 µM

// IC50 lookup, molecule = Cc1c(C(=O)N2CCc3ccccc3C2)oc2ccc(S(=O)(=O)N3CCCCC3)cc12 , result: < 5 µM

// IC50 lookup, molecule = O=C(NC1CC1)c1cc2cc(S(=O)(=O)N3CCCCCC3)ccc2n1S(=O)(=O)c1ccccc1 , result: < 5 µM
